Catalogue of inhibition at 8.1 µM values
- assay-target: GNAQ (T96S) (Homo sapiens, UniProt P50148, T96S)
- Construct: BPS Bioscience (parental reporter cell line) 60406
- protocol-details: SRE luciferase reporter gene-HEK293 cell line, GNAQ (T96S)
- Type: cell-based
- assay-conditions: Cell type T96S; analytical concentration 8,100 nM; 20% FBS induction; read-out: GNAQ inhibitory rate

N#Cc1cccc(-c2nccc(-c3cccc(NC(=O)Nc4cc(Cl)nc(Cl)c4)c3)n2)c1; > 70%
O=C(Nc1cccc(-c2ccnc(-c3ccc(F)c(F)c3)n2)c1)Nc1cc(Cl)nc(Cl)c1; 40 to 70%
O=C(Nc1ccc(-c2ccnc(-c3ccncc3)n2)cc1)Nc1ccc(Cl)c(C(F)(F)F)c1; 40 to 70%
O=C(Nc1cccc(-c2ccnc(-c3cccc(C(F)(F)F)c3)n2)c1)c1cc(Cl)nc(Cl)c1; < 10%

Report inhibition at 8.1 µM for O=C(Nc1ccc(-c2cccc(-c3ccncc3)n2)cc1)Nc1ccc(Cl)c(C(F)(F)F)c1 40 to 70%

Give the reported value of inhibition at 8.1 µM for this record: O=C(Nc1ccc(-c2ccnc(-c3cccc(C(F)(F)F)c3)n2)cc1)Nc1cc(Cl)nc(Cl)c1 10 to 39%

Hello, please tell me recorded inhibition at 8.1 µM for this one: O=C(Nc1cccc(-c2cccc(-c3ccncc3)n2)c1)Nc1cc(Cl)nc(Cl)c1 > 70%

====

- assay-target: GNAQ (WT) (Homo sapiens)
- Construct: BPS Bioscience (parental reporter cell line) 60406
- protocol-details: SRE luciferase reporter gene-HEK293 cell line, GNAQ (WT)
- Format: cell-based
- assay-conditions: Cell type WT; analytical concentration 900 nM; 20% FBS induction; read-out: GNAQ inhibitory rate
measurement-kind: inhibition at 0.9 µM

Here's what some known entries look like.
O=C(Nc1cccc(-c2cc(-c3cccc(C(F)(F)F)c3)ncn2)c1)Nc1cc(Cl)nc(Cl)c1; < 10%
O=C(Nc1ccc(-c2cccc(-c3cccc(C(F)(F)F)c3)n2)cc1)Nc1cc(Cl)nc(Cl)c1; 10 to 39%
N#Cc1cccc(-c2nccc(-c3cccc(NC(=O)Nc4cc(Cl)nc(Cl)c4)c3)n2)c1; 10 to 39%
O=C(Nc1ccc(-c2ccnc(-c3cccc(C(F)(F)F)c3)n2)cc1)Nc1ccc(Cl)c(C(F)(F)F)c1; < 10%
O=C(Nc1ccc(-c2ccnc(-c3cccc(C(F)(F)F)c3)n2)cc1)Nc1cc(Cl)nc(Cl)c1; < 10%

Hello, please tell me recorded inhibition at 0.9 µM for this one: O=C(Nc1cccc(-c2ccnc(-c3ccc(F)c(F)c3)n2)c1)Nc1cc(Cl)nc(Cl)c1 < 10%

Give inhibition at 0.9 µM for the following compound: O=C(Nc1cccc(-c2ccnc(-c3cccc(C(F)(F)F)c3)n2)c1)c1cc(Cl)nc(Cl)c1 < 10%

Give me measured inhibition at 0.9 µM, please, for this compound: O=C(Nc1ccc(-c2cccc(-c3ccncc3)n2)cc1)Nc1ccc(Cl)c(C(F)(F)F)c1 10 to 39%

Using the record for O=C(Nc1ccc(-c2nc(-c3ccccc3)ncc2Cl)cc1)Nc1cc(Cl)nc(Cl)c1 , state its measured inhibition at 0.9 µM. < 10%

Quickly give me recorded inhibition at 0.9 µM for N#Cc1cccc(-c2cccc(-c3ccc(NC(=S)Nc4cc(Cl)nc(Cl)c4)cc3)n2)c1 10 to 39%

Quote inhibition at 0.9 µM reported for O=C(Nc1ccc(-c2ccnc(-c3ccncc3)n2)cc1)Nc1ccc(Cl)c(C(F)(F)F)c1 please. < 10%

Assign inhibition at 0.9 µM to the following record: O=C(Nc1cccc(-c2ccnc(-c3cccc(C(F)(F)F)c3)n2)c1)Nc1cc(Cl)nc(Cl)c1 10 to 39%

Name the recorded inhibition at 0.9 µM of the compound listed here: FC(F)(F)c1cccc(-c2cccc(-c3ccc(NC(=S)Nc4cc(Cl)nc(Cl)c4)cc3)n2)c1 10 to 39%

Quick one: give measured inhibition at 0.9 µM for O=C(Nc1cccc(-c2ccnc(-c3ccnc(Cl)c3)n2)c1)Nc1cc(Cl)nc(Cl)c1 < 10%

Respond only with inhibition at 0.9 µM recorded for O=C(Nc1cccc(-c2cccc(-c3ccncc3)n2)c1)Nc1cc(Cl)nc(Cl)c1 10 to 39%

====

- assay-target: GNAQ (T96S) (Homo sapiens, UniProt P50148, T96S)
- Construct: BPS Bioscience (parental reporter cell line) 60406
- Sequence (P50148 1-359 T96S): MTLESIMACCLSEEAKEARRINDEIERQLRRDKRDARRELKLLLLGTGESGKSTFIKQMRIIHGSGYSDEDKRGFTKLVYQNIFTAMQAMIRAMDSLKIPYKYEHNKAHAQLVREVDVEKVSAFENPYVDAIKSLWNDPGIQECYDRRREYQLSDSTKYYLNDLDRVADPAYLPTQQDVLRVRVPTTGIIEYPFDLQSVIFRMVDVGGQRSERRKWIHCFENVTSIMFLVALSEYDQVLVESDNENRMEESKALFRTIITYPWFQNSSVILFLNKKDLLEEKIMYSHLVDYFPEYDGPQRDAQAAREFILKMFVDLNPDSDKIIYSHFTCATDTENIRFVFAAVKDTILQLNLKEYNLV
- protocol-details: SRE luciferase reporter gene-HEK293 cell line, GNAQ (T96S)
- Format: cell-based
- assay-conditions: Cell type T96S; analytical concentration 8,100 nM; 20% FBS induction; read-out: GNAQ inhibitory rate
measurement-kind: inhibition at 8.1 µM

Previously resolved entries follow.
N#Cc1cccc(-c2cccc(-c3ccc(NC(=S)Nc4cc(Cl)nc(Cl)c4)cc3)n2)c1; > 70%
FC(F)(F)c1cccc(-c2cccc(-c3ccc(NC(=S)Nc4cc(Cl)nc(Cl)c4)cc3)n2)c1; > 70%
O=C(Nc1cccc(-c2cc(-c3cccc(C(F)(F)F)c3)ncn2)c1)Nc1cc(Cl)nc(Cl)c1; > 70%

Okay, next one:
Answer with the recorded inhibition at 8.1 µM for the compound listed here: O=C(Nc1ccc(-c2cccc(-c3cccc(C(F)(F)F)c3)n2)cc1)Nc1cc(Cl)nc(Cl)c1 40 to 70%

====

- assay-target: GNAQ (T96S) (Homo sapiens, UniProt P50148, T96S)
- Construct: BPS Bioscience (parental reporter cell line) 60406
- Sequence (P50148 1-359 T96S): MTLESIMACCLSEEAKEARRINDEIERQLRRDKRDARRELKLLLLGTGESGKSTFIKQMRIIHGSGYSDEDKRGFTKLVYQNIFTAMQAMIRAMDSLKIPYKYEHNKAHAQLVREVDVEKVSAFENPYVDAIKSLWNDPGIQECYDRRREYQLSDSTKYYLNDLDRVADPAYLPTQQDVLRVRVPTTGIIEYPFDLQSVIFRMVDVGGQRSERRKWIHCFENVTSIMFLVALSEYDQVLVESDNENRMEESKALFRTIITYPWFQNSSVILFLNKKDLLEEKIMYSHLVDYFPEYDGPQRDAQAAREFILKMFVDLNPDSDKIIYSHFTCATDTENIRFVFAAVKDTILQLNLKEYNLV
- protocol-details: SRE luciferase reporter gene-HEK293 cell line, GNAQ (T96S)
- Type: cell-based
- assay-conditions: Cell type T96S; analytical concentration 900 nM; 20% FBS induction; read-out: GNAQ inhibitory rate
measurement-kind: inhibition at 0.9 µM

N#Cc1cccc(-c2cccc(-c3ccc(NC(=S)Nc4cc(Cl)nc(Cl)c4)cc3)n2)c1 [Compound 11]; 10 to 39%
O=C(Nc1cccc(-c2ccnc(-c3ccc(F)c(F)c3)n2)c1)Nc1cc(Cl)nc(Cl)c1 [Compound 4]; < 10%
O=C(Nc1ccc(-c2cccc(-c3ccncc3)n2)cc1)Nc1ccc(Cl)c(C(F)(F)F)c1 [Compound 12]; 10 to 39%
O=C(Nc1cccc(-c2cc(-c3cccc(C(F)(F)F)c3)ncn2)c1)Nc1cc(Cl)nc(Cl)c1 [Compound 14]; 10 to 39%
O=C(Nc1ccc(-c2ccnc(-c3cccc(C(F)(F)F)c3)n2)cc1)Nc1cc(Cl)nc(Cl)c1 [Compound 7]; < 10%
O=C(Nc1ccc(-c2nc(-c3ccccc3)ncc2Cl)cc1)Nc1cc(Cl)nc(Cl)c1 [Compound 15]; < 10%
O=C(Nc1cccc(-c2ccnc(-c3cccc(C(F)(F)F)c3)n2)c1)Nc1cc(Cl)nc(Cl)c1 [Compound 2]; < 10%
O=C(Nc1ccc(-c2cccc(-c3cccc(C(F)(F)F)c3)n2)cc1)Nc1cc(Cl)nc(Cl)c1 [Compound 9]; < 10%
O=C(Nc1ccc(-c2ccnc(-c3ccncc3)n2)cc1)Nc1ccc(Cl)c(C(F)(F)F)c1 [Compound 6]; 10 to 39%
N#Cc1cccc(-c2nccc(-c3cccc(NC(=O)Nc4cc(Cl)nc(Cl)c4)c3)n2)c1 [Compound 3]; < 10%

Switching to the query record.
For the compound O=C(Nc1cccc(-c2ccnc(-c3cccc(C(F)(F)F)c3)n2)c1)c1cc(Cl)nc(Cl)c1 [Compound 5] , report inhibition at 0.9 µM. < 10%

====

- assay-target: GNAQ (WT) (Homo sapiens)
- Construct: BPS Bioscience (parental reporter cell line) 60406
- Sequence (P50148 1-359): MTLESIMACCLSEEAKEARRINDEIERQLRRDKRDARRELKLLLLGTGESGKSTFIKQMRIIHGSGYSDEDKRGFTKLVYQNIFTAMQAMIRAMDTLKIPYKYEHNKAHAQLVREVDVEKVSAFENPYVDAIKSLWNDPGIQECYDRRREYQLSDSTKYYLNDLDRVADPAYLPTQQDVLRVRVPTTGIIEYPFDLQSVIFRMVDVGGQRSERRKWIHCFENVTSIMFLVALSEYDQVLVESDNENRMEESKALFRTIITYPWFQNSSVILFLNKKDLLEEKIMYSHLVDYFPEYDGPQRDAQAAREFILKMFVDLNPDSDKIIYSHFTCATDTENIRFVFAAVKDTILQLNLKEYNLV
- protocol-details: SRE luciferase reporter gene-HEK293 cell line, GNAQ (WT)
- Type: cell-based
- assay-conditions: Cell type WT; analytical concentration 2,700 nM; 20% FBS induction; read-out: GNAQ inhibitory rate
measurement-kind: inhibition at 2.7 µM

N#Cc1cccc(-c2cccc(-c3ccc(NC(=S)Nc4cc(Cl)nc(Cl)c4)cc3)n2)c1; 40 to 70%
FC(F)(F)c1cccc(-c2cccc(-c3ccc(NC(=S)Nc4cc(Cl)nc(Cl)c4)cc3)n2)c1; 40 to 70%
O=C(Nc1ccc(-c2ccnc(-c3cccc(C(F)(F)F)c3)n2)cc1)Nc1ccc(Cl)c(C(F)(F)F)c1; < 10%
O=C(Nc1cccc(-c2ccnc(-c3cccc(C(F)(F)F)c3)n2)c1)Nc1cc(Cl)nc(Cl)c1; 10 to 39%
O=C(Nc1ccc(-c2ccnc(-c3cccc(C(F)(F)F)c3)n2)cc1)Nc1cc(Cl)nc(Cl)c1; < 10%
O=C(Nc1ccc(-c2nc(-c3ccccc3)ncc2Cl)cc1)Nc1cc(Cl)nc(Cl)c1; 10 to 39%
O=C(Nc1cccc(-c2ccnc(-c3ccc(F)c(F)c3)n2)c1)Nc1cc(Cl)nc(Cl)c1; 10 to 39%
O=C(Nc1ccc(-c2cccc(-c3ccncc3)n2)cc1)Nc1ccc(Cl)c(C(F)(F)F)c1; 10 to 39%
O=C(Nc1ccc(-c2ccnc(-c3ccncc3)n2)cc1)Nc1ccc(Cl)c(C(F)(F)F)c1; 10 to 39%
N#Cc1cccc(-c2nccc(-c3cccc(NC(=O)Nc4cc(Cl)nc(Cl)c4)c3)n2)c1; 10 to 39%

Give inhibition at 2.7 µM for the following compound: O=C(Nc1cccc(-c2ccnc(-c3ccnc(Cl)c3)n2)c1)Nc1cc(Cl)nc(Cl)c1 10 to 39%

Please give the documented inhibition at 2.7 µM of O=C(Nc1cccc(-c2ccnc(-c3cccc(C(F)(F)F)c3)n2)c1)c1cc(Cl)nc(Cl)c1 10 to 39%

Data credit: patent US20250197373A1
